target: HLA-A*02:01; experiment: IEDB peptide-MHC binding, purified MHC/competitive/radioactivity; bounds were set here for any values at or beyond the usual limits of such assays; details: source organism: Toxoplasma gondii GT1
Task for the reader: assign each of the following sequences its reported pIC50.
Quick note: pIC50 means taking -log10 of the concentration in moles per liter.

**Q:** Bench note: what pIC50 did "LLSDLSVRL" show?
**A:** 6.30

**Q:** Then what about the sequence "YLSPIASPLL" ?
**A:** 7.00

**Q:** Then what about the sequence "HLMDEAVEV" ?
**A:** 6.30

**Q:** Then what about the sequence "YLFKEGVIVV" ?
**A:** 6.30

**Q:** Then what about the sequence "ALDINLPNV" ?
**A:** 6.30

**Q:** Then what about the sequence "VMSELEFYL" ?
**A:** 7.00

**Q:** Then what about the sequence "FVLELEPEWTV" ?
**A:** 8.00

**Q:** Then what about the sequence "MLYAGAPTTV" ?
**A:** 7.00

**Q:** Then what about the sequence "GLAETEVPV" ?
**A:** 6.30

**Q:** Then what about the sequence "ALAALAPSLEV" ?
**A:** 6.00
